Quick reference: MC4R cAMP EC50 of the listed items.
targetOrTestSystem: human melanocortin 4 receptor (human, UniProt P32245 1-332)
Sequence (P32245 whole entry): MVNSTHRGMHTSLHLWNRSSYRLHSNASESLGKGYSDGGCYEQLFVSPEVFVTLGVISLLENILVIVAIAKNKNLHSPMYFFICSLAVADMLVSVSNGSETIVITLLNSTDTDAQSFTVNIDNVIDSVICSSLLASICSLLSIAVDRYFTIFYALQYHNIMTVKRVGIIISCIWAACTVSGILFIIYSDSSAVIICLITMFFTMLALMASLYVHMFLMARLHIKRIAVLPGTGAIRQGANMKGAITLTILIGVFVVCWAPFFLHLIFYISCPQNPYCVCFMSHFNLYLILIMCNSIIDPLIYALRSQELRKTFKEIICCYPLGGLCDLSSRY
methodSummary: cell-based or functional assay
Positions of bridges follow the written chain, without caps; N, C: chain ends. Non-standard residues stand in square brackets, D forms with d. Aze = O=C(O)[C@@H]1CCN1

# binder, unitAnnotation, MC4R cAMP EC50
measured = [
    ("cyclo(C[Aze]H[dF]HWCAKKKW) (disulfide 1-7; SMILES C[C@@H]1NC(=O)[C@@H]2CSSC[C@H](NC(=O)[C@H](Cc3c[nH]c4ccccc34)NC(=O)[C@H](CCCCN)NC(=O)[C@H](CCCCN)NC(=O)[C@H](CCCCN)NC1=O)C(=O)N1CC[C@H]1C(=O)N[C@@H](Cc1c[nH]cn1)C(=O)N[C@H](Cc1ccccc1)C(=O)N[C@@H](Cc1c[nH]cn1)C(=O)N[C@@H](Cc1c[nH]c3ccccc13)C(=O)N2, also called c[c[Cys-AZE-His-D-Phe-His-Trp-Cys]-Ala-Lys-Lys-Lys-Trp]) [Chem. 82]", "nM", 0.53),
    ("cyclo(CH[dF]RWRCH[dF]RWR) (disulfide 1-7; SMILES N=C(N)NCCC[C@@H]1NC(=O)[C@H](Cc2c[nH]c3ccccc23)NC(=O)[C@H](CCCNC(=N)N)NC(=O)[C@@H](Cc2ccccc2)NC(=O)[C@H](Cc2c[nH]cn2)NC(=O)[C@@H]2CSSC[C@H](NC1=O)C(=O)N[C@@H](Cc1c[nH]cn1)C(=O)N[C@H](Cc1ccccc1)C(=O)N[C@@H](CCCNC(=N)N)C(=O)N[C@@H](Cc1c[nH]c3ccccc13)C(=O)N[C@@H](CCCNC(=N)N)C(=O)N2, also called c[c[Cys-His-D-Phe-Arg-Trp-Arg-Cys]-His-D-Phe-Arg-Trp-Arg]) [Chem. 68]", "nM", 4.35),
    ("cyclo(CAH[dF]QWCAK[dK]KW) (disulfide 1-7; SMILES C[C@@H]1NC(=O)[C@@H]2CSSC[C@H](NC(=O)[C@H](Cc3c[nH]c4ccccc34)NC(=O)[C@H](CCC(N)=O)NC(=O)[C@@H](Cc3ccccc3)NC(=O)[C@H](Cc3c[nH]cn3)NC1=O)C(=O)N[C@@H](C)C(=O)N[C@@H](CCCCN)C(=O)N[C@H](CCCCN)C(=O)N[C@@H](CCCCN)C(=O)N[C@@H](Cc1c[nH]c3ccccc13)C(=O)N2, also called c[c[Cys-Ala-His-D-Phe-Gln-Trp-Cys]-Ala-Lys-D-Lys-Lys-Trp]) [Chem. 57]", "nM", 0.19),
]

Data provenance is patent US20200223889A1.
